# credit: paper PMC8967877

Target: wild-type murine PNKP (murine, UniProt Q9JLV6 1-522)
Sequence (Q9JLV6 whole entry): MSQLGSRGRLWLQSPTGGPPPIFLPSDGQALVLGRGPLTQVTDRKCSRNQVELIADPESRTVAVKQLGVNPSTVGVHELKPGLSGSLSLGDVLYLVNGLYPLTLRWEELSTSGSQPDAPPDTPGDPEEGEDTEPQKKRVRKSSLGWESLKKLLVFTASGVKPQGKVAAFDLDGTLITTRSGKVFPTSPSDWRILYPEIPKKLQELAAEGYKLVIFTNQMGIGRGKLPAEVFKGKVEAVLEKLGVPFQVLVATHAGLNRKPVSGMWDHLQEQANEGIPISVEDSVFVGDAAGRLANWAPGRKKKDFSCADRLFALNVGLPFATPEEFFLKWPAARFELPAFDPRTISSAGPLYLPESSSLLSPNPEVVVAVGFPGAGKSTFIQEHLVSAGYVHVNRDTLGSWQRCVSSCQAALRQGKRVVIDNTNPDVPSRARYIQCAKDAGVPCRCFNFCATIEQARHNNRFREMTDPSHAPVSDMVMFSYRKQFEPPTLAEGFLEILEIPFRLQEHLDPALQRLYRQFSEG
Test: FP
Square brackets hold non-standard residues; d marks the D form. Ends that are not written are not given here. pT = C[C@@H](OP(=O)(O)O)[C@H](N)C(=O)O
Measured metric: pKd
Note on units: pKd is unitless, being -log10 of a concentration expressed in mol/L.

Form field pKd, entry GGYDES[pT]DEESKK (also: fluorescent dye label, position not given here) [fluorescent-dye labeled XRCC4-based phosphopeptide (GGYDES-pT-DEESKK)] : 6.12
